# target-under-test: HRgpA-6H (Porphyromonas gingivalis) (UniProt P28784)
# test-description: ELISA, FASEBA Fab on coated HRgpA-6H
measurement-label: OD450nm
Answer field: number only, no words.

Below: 2 binders and their reported OD450nm.
[[record]]
binder = "KB001 mouse Fab VL S27M (Fab, V domains shown) VH: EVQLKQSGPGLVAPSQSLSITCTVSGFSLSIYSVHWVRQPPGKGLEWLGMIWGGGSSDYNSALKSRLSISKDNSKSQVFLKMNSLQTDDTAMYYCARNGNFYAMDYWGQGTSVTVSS VL: QIVLTQSPAIMSASLGERVTMTCTASMSVSSSFLHWYQQKPGSSPQLWIYSTSNLASGVPARFSGSGSGTSYSLTISSMEAEDAATYYCHQYHHSPYIYTFGGGTKLEIK"
quantitative_readout = 0.709

[[record]]
binder = "KB001 mouse Fab VL S53V (Fab, V domains shown) VH: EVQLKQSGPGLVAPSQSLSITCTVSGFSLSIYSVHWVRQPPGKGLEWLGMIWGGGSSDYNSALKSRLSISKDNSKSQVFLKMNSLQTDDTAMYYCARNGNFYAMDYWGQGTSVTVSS VL: QIVLTQSPAIMSASLGERVTMTCTASSSVSSSFLHWYQQKPGSSPQLWIYSTVNLASGVPARFSGSGSGTSYSLTISSMEAEDAATYYCHQYHHSPYIYTFGGGTKLEIK"
quantitative_readout = 0.702


Please look at the following binder next.
Assign OD450nm to the following record: KB001 mouse Fab VL T100F (Fab, V domains shown) VH: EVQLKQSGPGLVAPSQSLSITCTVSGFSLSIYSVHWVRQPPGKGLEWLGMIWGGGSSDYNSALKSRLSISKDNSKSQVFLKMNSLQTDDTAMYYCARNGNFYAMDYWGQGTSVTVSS VL: QIVLTQSPAIMSASLGERVTMTCTASSSVSSSFLHWYQQKPGSSPQLWIYSTSNLASGVPARFSGSGSGTSYSLTISSMEAEDAATYYCHQYHHSPYIYFFGGGTKLEIK 0.552
